Overview of recorded In Vivo LVh 3 mg/kg 8 h, remaining FAAH activity for various molecules
- test system: FAAH (Mus musculus, UniProt O08914)
- Construct: A fragment of liver, left lung lobe and brain without cerebellum were removed; from tissue; host or cells: male NMRI mice; brain (without cerebellum) and liver homogenates
- Sequence (O08914 1-579): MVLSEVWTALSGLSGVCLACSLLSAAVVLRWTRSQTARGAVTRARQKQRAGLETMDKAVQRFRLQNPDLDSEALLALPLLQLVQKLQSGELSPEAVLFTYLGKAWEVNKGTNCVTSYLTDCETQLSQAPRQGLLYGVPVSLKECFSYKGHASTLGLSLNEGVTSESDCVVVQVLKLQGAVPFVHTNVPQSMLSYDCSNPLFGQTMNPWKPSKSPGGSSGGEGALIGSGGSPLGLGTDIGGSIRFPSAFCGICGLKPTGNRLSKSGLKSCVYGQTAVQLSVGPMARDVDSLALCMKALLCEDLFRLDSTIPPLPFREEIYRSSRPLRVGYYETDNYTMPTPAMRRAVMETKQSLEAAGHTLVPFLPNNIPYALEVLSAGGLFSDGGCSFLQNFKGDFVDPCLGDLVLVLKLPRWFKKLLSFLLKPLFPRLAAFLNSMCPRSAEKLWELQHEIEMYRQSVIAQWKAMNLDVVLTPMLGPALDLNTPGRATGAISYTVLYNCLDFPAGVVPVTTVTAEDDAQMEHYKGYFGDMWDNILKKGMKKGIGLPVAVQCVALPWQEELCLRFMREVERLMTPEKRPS
- assay protocol: In vivo FAAH inhibition after oral dosing, remaining activity in liver homogenate (LVh, peripheral tissue)
- Parameters: species or system NMRI mice
- settings: liver homogenate, 3 mg/kg, 8 h
measured endpoint: In Vivo LVh 3 mg/kg 8 h, remaining FAAH activity

1. COc1ccc(-c2ncn(C(=O)N3COCC3(C)C)n2)cc1 89 % of control
2. COc1cc(-c2cn(C(=O)N3COCC3(C)C)cn2)ccc1O 31.9 % of control
3. Cl.N#Cc1ccc(Oc2ccc(-c3ncn(C(=O)N4CCN(c5ccccc5)CC4)n3)cc2)cc1 116.5 % of control
4. CC1(C)OCCN1C(=O)n1cnc(-c2ccccc2)c1 20 % of control
5. CC1(C)COCN1C(=O)n1cnc2ccccc21 89 % of control
6. Cc1c(-c2ccccc2)ncn1C(=O)N(C)C1CCCCC1 89.9 % of control
